Data provenance is paper PMC5540273.

The reader will find reported %Inh values listed item by item below.
# Tested on: BRSK1;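 further: KINOMEscan kinase panel screen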
# condition.parameters: concentration: 1 μM, replicates: in singlicate; n = 1
assay.readout: %Inh (%)

>>> recorded_value("Cc1cccc(-c2cc(-c3c[nH]nc3-c3ccccn3)ccn2)c1 [GW679395]")
0
>>> recorded_value("Cc1nc(N(C)[C@H]2CN(C(=O)CC#N)CC[C@H]2C)c2cc[nH]c2n1")
0
>>> recorded_value("Cl.NS(=O)(=O)c1cccc(Nc2cc(-c3ccc(F)cc3)n[nH]2)c1 [GW824645]")
0
>>> recorded_value("Cc1nnc(-c2ccc3ncn(-c4ccc(S(C)=O)cc4)c3c2)o1 (stereo not shown)")
0
>>> recorded_value("O=C1NC(=O)C(c2ccccc2)=C1Nc1cccc(O)c1 [SB-390534]")
2
>>> recorded_value("Cc1ccccc1COc1cc(-n2cnc3cc(Cl)ccc32)sc1C(N)=O [GW813349]")
0
>>> recorded_value("COc1cc(Nc2ccnc3ccc(C(F)(F)F)cc23)cc(OC)c1OC [GW577382]")
0
>>> recorded_value("COc1cc2ncn(-c3cc(OCc4ccncc4)c(C(N)=O)s3)c2cc1OC [GSK336313]")
0
>>> recorded_value("COC(=O)c1c(-c2ccccc2)c2cc(Br)ccc2c(=O)n1Cc1ccc(S(C)(=O)=O)cc1")
29
>>> recorded_value("COc1cc2ncn(-c3cc(OCCCc4ccccc4)c(C(N)=O)s3)c2cc1OC [GSK205189]")
1
>>> recorded_value("COc1cc(Nc2nccc(N3CCC(NC(=O)C4COc5ccccc5O4)C3)n2)cc(OC)c1OC (stereo not shown) [GSK1379761]")
9
>>> recorded_value("Cc1cccc(-c2nc(Nc3ccc4c(cnn4C)c3)c3ccccc3n2)n1 [GW876731]")
0
>>> recorded_value("COC(=O)c1c(-c2ccccc2)c2cc(Br)ccc2c(=O)n1Cc1ccc(NC(=O)CCC(=O)O)cc1")
0
>>> recorded_value("CCCC(=O)Nc1n[nH]c2ncc(-c3cccc4ccccc34)cc12 [SB-642057]")
0
>>> recorded_value("Cl.c1ccc(Cn2cnc3cc(Nc4ncnc5ccccc45)ccc32)cc1 [GW272142]")
4
>>> recorded_value("CCn1c(-c2ccoc2)nc2cnccc21 [SB-733887]")
0
>>> recorded_value("COc1ccc(-c2coc3ccc(-c4nnc(SCc5cccc(C#N)c5)o4)cc23)cc1")
0
>>> recorded_value("Nc1nccc2scc(-c3ccc4c(c3)CCN4C(=O)Cc3ccccc3)c12 [GSK2576924]")
0
>>> recorded_value("Cc1ccc(Oc2ccc(Nc3ncnc4cc[nH]c34)cc2C)cn1")
10
>>> recorded_value("O=C(Nc1n[nH]c2nc(-c3ccccc3)c(Br)cc12)C1CC1 [SB-708998]")
60
>>> recorded_value("Nc1nc(-c2ccccc2F)c(-c2ccnc3ccccc23)s1 [GW560459]")
0
>>> recorded_value("COc1ccc(-n2cnc3c(N)ncnc32)cc1 [SKF-97236]")
2
>>> recorded_value("OCCCNc1nccc(-c2c(-c3cccc(C(F)(F)F)c3)nn3cc(C(F)(F)F)ccc23)n1 [GW630813]")
0
>>> recorded_value("Cc1nn2c(=O)cc(N3CCOCC3)nc2n1Cc1cccc(Cl)c1Cl [GSK2342769]")
0
>>> recorded_value("COc1ccc(-c2cc3c(C)nc(N)nc3n([C@H]3CC[C@H](O)CC3)c2=O)cn1")
0
>>> recorded_value("O=C(Nc1ccc2c(c1)OCO2)NC1CCN(c2ccnc(NCc3ccc(F)cc3)n2)CC1 [GSK1379859]")
0
>>> recorded_value("CCC(=O)c1c(-c2ccccc2)c2cc(Cl)ccc2c(=O)n1Cc1cc(S(C)(=O)=O)n(CCC(C)(C)O)n1")
11
>>> recorded_value("CN(C)c1cc(-c2ccc3c(N)n[nH]c3c2)nc(N)n1 [GSK2219329]")
0
>>> recorded_value("COc1cc2nccc(Nc3ccc(OCc4ccc(NC(C)=O)cc4)cc3)c2cc1OC.Cl [GW440135]")
0
>>> recorded_value("COc1cc(Nc2nccc(N3CCC(NC(=O)C(C)c4ccc(Cl)cc4)C3)n2)cc(OC)c1OC (stereo not shown) [GSK1379757]")
0
>>> recorded_value("C[C@@H]1CC[C@H](C(=O)NC2CCCCC2)CN1c1cc(-c2ccc3c(N)n[nH]c3c2)nc(N)n1 [GSK2291363]")
0
>>> recorded_value("CN1C(=O)C(Nc2ccccc2)=C(c2ccccc2)C1=O [SB-300079]")
0
>>> recorded_value("Nc1nc(N)c2nc(-c3ccccc3)[nH]c2n1 [SKF-12778]")
0
>>> recorded_value("COc1ccc(-c2cc3c(C)nc(N)nc3n([C@H]3CC[C@H](OCCO)CC3)c2=O)cn1")
28
>>> recorded_value("Cn1c(=O)c(F)c(Nc2ccc(I)cc2F)c2c(=O)n(OC[C@H](O)CO)cnc21")
0
>>> recorded_value("Cc1ccc(-c2ccc3c(ccc4sc5c(c43)NC[C@@H](C)N=C5N(C)C)n2)cn1")
0
>>> recorded_value("COc1cccc(C2=C(Nc3cccc(C(=O)O)c3)C(=O)NC2=O)c1 [SB-390770]")
0
